Data origin: patent US7432303B2

System: SVR cells
Experiment: SVR cell assay: cell numbers counted at 48 hours, percent inhibition versus control
Assay type: cell-based, murine
Details: 3 μg/ml; 10,000 SVR cells in 24 well dish; counted at 48 hours
Classification field: enter satisfied for Percent Inhibition at a Specified Density (μg/ml): 3 values not below 20%, not satisfied for values below it.

Example cases with answers are listed next.
compound="O=C(C=Cc1c(Cl)cccc1Cl)c1ccc2ccccc2c1 [Compound 59]" class_assignment=satisfied
compound="O=C(C=Cc1ccc2ccccc2c1)c1cccc2ccccc12 [Compound 64, 1-(1-Naphthyl)-3-(2-naphthyl)propenone]" class_assignment=satisfied
compound="O=C(C=Cc1ccc[nH]1)c1ccccc1 [Compound 50, 1-Phenyl-3-(2-pyrrolyl)propenone]" class_assignment=satisfied
compound="O=C(C=Cc1c2ccccc2cc2ccccc12)c1c2ccccc2cc2ccccc12 [Compound 53, 1,3-Di(9-Anthryl)propenone]" class_assignment="not satisfied"
compound="O=C(C=Cc1ccccc1)c1c2ccccc2cc2ccccc12 [Compound 51, 1-(9-Anthryl)-3-phenylpropenone]" class_assignment=satisfied
compound="O=C1C(=Cc2c(Cl)cccc2Cl)COc2ccccc21 [Compound 67, 3-(2,6-Dichlorobenzylidene)chromanone]" class_assignment="not satisfied"

Enquiry: Could you verify whether the entry O=C1C(=Cc2c(Cl)cccc2Cl)CCc2ccccc21 [Compound 69, 2-(2,6-Dichlorobenzylidene)tetralone] shows Percent Inhibition at a Specified Density (μg/ml): 3 of no less than 20%?
Return: satisfied
